system: Cannabinoid receptor 2 (Homo sapiens)
Sequence (P34972 whole entry): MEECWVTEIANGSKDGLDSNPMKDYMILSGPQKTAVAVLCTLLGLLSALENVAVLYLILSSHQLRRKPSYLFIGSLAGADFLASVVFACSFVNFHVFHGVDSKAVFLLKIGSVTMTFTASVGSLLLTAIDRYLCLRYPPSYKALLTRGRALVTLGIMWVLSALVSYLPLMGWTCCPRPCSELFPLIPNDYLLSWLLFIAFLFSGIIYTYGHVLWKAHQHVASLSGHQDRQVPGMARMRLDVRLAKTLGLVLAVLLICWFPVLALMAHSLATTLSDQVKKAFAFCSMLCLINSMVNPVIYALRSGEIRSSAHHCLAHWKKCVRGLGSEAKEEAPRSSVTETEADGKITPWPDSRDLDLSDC
experimental-details: Agonist activity at human CB2 receptor expressed in CHO cells assessed as inhibition of forskolin-stimulated cAMP accumulation using [3H]-cAMP at 1 uM after 5 mins by liquid scintillation counter relative to CP55940
Type: functional, cell-based
readout: inhibition (%)
Give just the number in %; leave the unit off.

Ask: Requested field: inhibition. Item: CCCCCc1cc(OC)c2cc(Cc3ccccc3OC)c(=O)oc2c1
Reply: 106

Ask: Another compound to look at: CCCCCc1cc(O)c2cc(Cc3cccc(O)c3)c(=O)oc2c1
Reply: 0

Ask: Another compound to look at: CCCCCCCC(C)(C)c1cc(O)c2cc(Cc3ccccc3O)c(=O)oc2c1
Reply: 52

Ask: Another compound to look at: CCCCCc1cc(OC)c2cc(Cc3ccccc3)c(=O)oc2c1
Reply: 47

Ask: Another compound to look at: CCCCCc1cc(O)c2cc(Cc3ccccc3Cl)c(=O)oc2c1
Reply: 2

Ask: Another compound to look at: CCCCCc1cc(O)c2cc(Cc3ccccc3C)c(=O)oc2c1
Reply: 12

Ask: Another compound to look at: CCCCCc1cc(O)c2cc(Cc3ccccc3O)c(=O)oc2c1
Reply: 0

----------
system: Cannabinoid receptor 1 (Homo sapiens, UniProt P21554)
Sequence (P21554 whole entry): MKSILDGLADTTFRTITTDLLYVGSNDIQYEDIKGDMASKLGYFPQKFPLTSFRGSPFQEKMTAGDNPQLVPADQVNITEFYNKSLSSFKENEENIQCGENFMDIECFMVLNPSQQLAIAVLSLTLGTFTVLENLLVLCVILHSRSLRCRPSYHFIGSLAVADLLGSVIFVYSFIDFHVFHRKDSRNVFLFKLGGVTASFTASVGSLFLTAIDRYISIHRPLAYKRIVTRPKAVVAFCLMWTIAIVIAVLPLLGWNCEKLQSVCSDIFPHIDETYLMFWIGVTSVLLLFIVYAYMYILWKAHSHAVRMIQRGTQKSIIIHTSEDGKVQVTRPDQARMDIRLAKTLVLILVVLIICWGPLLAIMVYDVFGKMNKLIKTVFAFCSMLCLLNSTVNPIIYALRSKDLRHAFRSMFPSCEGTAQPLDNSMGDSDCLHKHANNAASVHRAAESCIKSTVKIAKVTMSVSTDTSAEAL
pKi: −log10 of the molar value.
Respond with label 1 for pKi values of 6 and above, label 0 for values below.

Ask: Does CCCCCc1cc(O)c2cc(Cc3cccc(C)c3)c(=O)oc2c1 have a reported pKi of at least 6?
Reply: label 0

Ask: Another molecule to look at: CCCCCc1cc(O)c2cc(Cc3cccc(O)c3)c(=O)oc2c1
Reply: label 0

Ask: Another molecule to look at: CCCCCc1cc(O)c2cc(Cc3ccccc3O)c(=O)oc2c1
Reply: label 0

Ask: Another molecule to look at: CCCCC1(c2cc(OC)c3cc(Cc4ccccc4OC)c(=O)oc3c2)CCCC1
Reply: label 1

Ask: Another molecule to look at: COc1cccc(Cc2cc3c(OC)cccc3oc2=O)c1
Reply: label 0

Ask: Another molecule to look at: CCCCCc1cc(OC)c2cc(Cc3ccccc3C)c(=O)oc2c1
Reply: label 1

Ask: Another molecule to look at: Cc1cc(O)c2cc(Cc3ccccc3C)c(=O)oc2c1
Reply: label 0

Ask: Another molecule to look at: CCCCCc1cc(OC)c2cc(Cc3cccc(OC)c3)c(=O)oc2c1
Reply: label 1

Ask: Another molecule to look at: CCCCC1(c2cc(O)c3cc(Cc4ccccc4O)c(=O)oc3c2)CCCCC1
Reply: label 0

Ask: Another molecule to look at: CCCCCc1cc(OC)c2cc(Cc3cccc(Cl)c3)c(=O)oc2c1
Reply: label 1

Ask: Another molecule to look at: CCCCC1(c2cc(O)c3cc(Cc4ccccc4O)c(=O)oc3c2)CCCC1
Reply: label 0

Ask: Another molecule to look at: CCCCCc1cc(OC)c2cc(Cc3ccccc3OC)c(=O)oc2c1
Reply: label 1

Ask: Another molecule to look at: CCCCCc1cc(OC)c2cc(Cc3ccccc3)c(=O)oc2c1
Reply: label 0

----------
The reader will find pKi measurements below, all made with Cannabinoid receptor 1 (Homo sapiens).
Field pKi (float): negative decimal logarithm of the concentration in molar.

Ask: Requested read-out pKi, target or system Cannabinoid receptor 1 (Homo sapiens), entry CCCCCCCC(C)(C)c1cc(O)c2cc(Cc3ccccc3O)c(=O)oc2c1
Reply: 5.93

Ask: Another compound to look at: COc1cccc(Cc2cc3c(OC)cc(CBr)cc3oc2=O)c1
Reply: 5.32

Ask: Another compound to look at: CCCCCc1cc(O)c2cc(Cc3ccccc3Cl)c(=O)oc2c1
Reply: 4.72

Ask: Another compound to look at: CCCCCCC(C)(C)c1cc(OC)c2cc(Cc3ccccc3)c(=O)oc2c1
Reply: 5.84

Ask: Another compound to look at: CCCCCc1cc(O)c2cc(Cc3cccc(Cl)c3)c(=O)oc2c1
Reply: 5.19

Ask: Another compound to look at: CCCCCc1cc(O)c2cc(Cc3ccccc3)c(=O)oc2c1
Reply: 5.90

Ask: Another compound to look at: CCCCCc1cc(O)c2cc(Cc3ccccc3C)c(=O)oc2c1
Reply: 5.79

Ask: Another compound to look at: CCCCCc1cc(OC)c2cc(Cc3ccccc3Cl)c(=O)oc2c1
Reply: 7.48

Ask: Another compound to look at: CCCCCCC(C)(C)c1cc(O)c2cc(Cc3ccccc3)c(=O)oc2c1
Reply: 5.58

Where do these numbers come from? They come from ChEMBL document CHEMBL2176868.
